Data provenance: the supplement of paper PMC10567573

B1: MIA2 (parent)
chain: SVIEPVQESSFRSRKIAVEDENDL

Variants of: B1
EXPERIMENT: protein stability index of a GFP-peptide fusion (GPS, HEK-293T) (PSI 1-6); higher = more stable;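 further: lentivirally expressed fusions sorted by FACS into six bins by GFP to DsRed ratio, PSI derived from sequencing read proportions per bin multiplied by bin number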
MEASUREMENT_SETUP: c terminus: a fixed tail appended
EXPERIMENTAL_READOUT: protein stability index
Answer with a bare number; do not write a unit.

# get_value(readout='protein stability index', item= SVIEPVQESSFRSRQIAVEDENDL [K15Q] ) 5.71

For SVIEFVQESSFRSRKIAVEDENDL [P5F] , what is its reported protein stability index? 3.31

Recorded protein stability index of SVIEPVQESSFRSRKIAVEDSNDL [E21S] , please. 5.23

I have this variant here, SVIEPVQESSFRSKKIAVEDENDL [R14K] , and I need its recorded protein stability index. 5.67

# query: protein stability index of entry SVIEPVQESSFRSRKIQVEDENDL [A17Q] 5.44

Would you mind telling me what protein stability index value was observed for SVIEPVQESSFRSRKIAVELENDL [D20L] ? 4.42

Given the variant SVIEPVQESSFRSRKIAVEDENCL [D23C] , what is its reported protein stability index? 4.39

Consider the variant SVSEPVQESSFRSRKIAVEDENDL [I3S] and give its measured protein stability index. 4.84

Value lookup for protein stability index; key = SVIEPLQESSFRSRKIAVEDENDL [V6L] 5.16

# protein stability index lookup, item SVIEPVQESAFRSRKIAVEDENDL [S10A] 5.49

What value of protein stability index has been reported for the following variant? SVIEPVQESSFRSRKIAVEDENQL [D23Q] 5.83
